# Assay target: CCR2 (Homo sapiens, UniProt P41597)
# Construct: Membranes were prepared from THP-1 cells; endogenous in cells; host or cells: THP-1 cells (membrane preparation)
# Sequence (P41597 1-360 isoform P41597-2): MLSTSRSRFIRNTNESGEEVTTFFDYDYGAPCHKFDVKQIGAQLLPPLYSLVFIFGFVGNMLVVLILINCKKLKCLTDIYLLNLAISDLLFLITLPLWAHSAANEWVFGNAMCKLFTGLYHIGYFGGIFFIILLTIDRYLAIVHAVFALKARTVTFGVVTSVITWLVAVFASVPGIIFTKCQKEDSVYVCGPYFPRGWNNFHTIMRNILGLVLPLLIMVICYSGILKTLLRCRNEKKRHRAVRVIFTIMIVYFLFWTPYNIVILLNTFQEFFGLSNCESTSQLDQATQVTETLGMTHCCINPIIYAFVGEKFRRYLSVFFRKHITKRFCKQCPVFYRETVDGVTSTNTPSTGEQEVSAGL
# Protocol summary: CCR2 receptor membrane binding assay ([125I]MCP-1, THP-1 cell membranes, SPA beads)
# Conditions used: @ 10 μM test compound; THP-1 membranes; read-out: CCR2 % ctrl @ 10 μM
Threshold-based label: remaining activity at 10 µM under 10% gives YES, remaining activity at 10 µM not under 10% gives NO.

Molecule	Label
Cc1c(NCc2ccc(Cl)c(Cl)c2)ncnc1C(=O)N1CCC(N2CC[C@@H](NS(C)(=O)=O)C2)CC1	NO
Cc1c(NCc2ccc(C(C)(C)C)cc2)ncnc1C(=O)N1CCC(NC2CCOCC2F)CC1 (stereo not drawn) [Example 228d]	YES
CNC(=O)C1CCN(C2CCN(C(=O)c3ncnc(NCC4CCN(c5ccccc5)C4)c3C)CC2)CC1 (stereo not drawn)	YES
Cc1ccc(CNc2ncnc(C(=O)N3CCC(N4CCOCC4)CC3)c2C)cc1F	NO
COc1ccc(CCNc2ncnc(C(=O)N3CCC(N4CCCCC4)CC3)c2C)cc1Cl	NO
Cc1c(NCc2cccc(Cl)c2)ncnc1C(=O)N1CCC(N2CCC(N(C)S(C)(=O)=O)CC2)CC1	YES
Cc1nc(NCc2ccc(Cl)c(Cl)c2)c(C)c(C(=O)N2CCC(N3CCC(NS(C)(=O)=O)CC3)CC2)n1	YES
CCS(=O)(=O)N(C)C1CCN(C2CCN(C(=O)c3ncnc(NCCc4ccc(Cl)c(Cl)c4)c3C)CC2)CC1	YES
CCS(=O)(=O)N(C)C1CCN(C2CCN(C(=O)c3ncnc(NCc4ccc(C(C)(C)C)cc4)c3C)CC2)CC1	YES
Cc1c(NCc2ccc(Cl)c(Cl)c2)ncnc1C(=O)N1CCC(N2Cc3ccccc3C2)CC1	NO
CCS(=O)(=O)N(C)C1CCN(C2CCN(C(=O)c3ncnc(NCc4ccc(C(C)C)cc4)c3C)CC2)CC1	YES
Cc1c(NCc2cccc(-c3ccccc3)c2)ncnc1C(=O)N1CCC(N2CCCC(O)C2)CC1 (stereo not drawn)	NO
Cc1c(NCc2ccc(Cl)c(Cl)c2)ncnc1C(=O)N1CCC(N2CCC(N(C)S(C)(=O)=O)CC2)CC1	YES
Cc1c(NCc2ccc(F)c(Cl)c2)ncnc1C(=O)N1CCC(N2CCC(O)CC2)CC1	NO
Cc1ccc(CNc2ncnc(C(=O)N3CCC(N4CCC(N(C)S(C)(=O)=O)CC4)CC3)c2C)cc1Cl	YES
Cc1ccc(CCNc2ncnc(C(=O)N3CCC(N4CCC(O)CC4)CC3)c2C)cc1C	NO
Cc1c(NCCc2cccc(Cl)c2)ncnc1C(=O)N1CCC(N2CCC(O)CC2)CC1	NO
Cc1c(NC[C@@H]2CCC[C@@H](c3ccccc3)C2)ncnc1C(=O)N1CCC(N2CCC(O)CC2)CC1	YES
Cc1c(NCC2Cc3ccccc3O2)ncnc1C(=O)N1CCC(N2CCC(O)CC2)CC1 (stereo not drawn)	NO
CNC(=O)C[C@H]1CCCN1C1CCN(C(=O)c2ncnc(NCc3ccc(C(C)(C)C)cc3)c2C)CC1	NO
Cc1c(NCc2ccc(C(C)(C)C)cc2)ncnc1C(=O)N1CCC(N2CCC(CNS(C)(=O)=O)CC2)CC1	YES
Cc1c(NCC2COc3ccccc3C2)ncnc1C(=O)N1CCC(N2CCOCC2)CC1 (stereo not drawn)	NO
Cc1c(NCc2ccc(Cl)c(Cl)c2)ncnc1C(=O)N1CCC(N2CCC(N3CCCS3(=O)=O)CC2)CC1	NO
CCS(=O)(=O)N(C)C1CCN(C2CCN(C(=O)c3ncnc(NCc4ccc(C(F)(F)F)c(Cl)c4)c3C)CC2)CC1	YES
CO[C@@H]1CCN(C2CCN(C(=O)c3ncnc(NCc4ccc(C(C)(C)C)cc4)c3C)CC2)C1	NO
Cc1c(NCCc2ccc(Cl)c(Cl)c2)ncnc1C(=O)N1CCC(N2CCCC(O)CC2)CC1 (stereo not drawn)	YES
CCc1ccc(CNc2ncnc(C(=O)N3CCC(N4CCC(N(C)S(C)(=O)=O)CC4)CC3)c2C)cc1	YES
Cc1c(NCc2ccc(Cl)c(Cl)c2)ncnc1C(=O)N1CCC(N2CC[C@H](NS(C)(=O)=O)C2)CC1	YES

====

# Assay target: CCR2 (Homo sapiens, UniProt P41597)
# Construct: Membranes were prepared from THP-1 cells; endogenous in cells
# Protocol summary: CCR2 receptor membrane binding assay ([125I]MCP-1, THP-1 cell membranes, SPA beads)
# Conditions used: dissociation constant hKi; [125I]MCP-1 binding to THP-1 membranes
pKi: −log10 of the molar value.
pKi overview
Property: pKi

Molecule	Quantitative readout
Cc1nc(NCc2ccc(C(F)(F)F)c(Cl)c2)c(C)c(C(=O)N2CCC(N3CCC(N(C)S(C)(=O)=O)CC3)CC2)n1 [Example 81]	7.28
Cc1c(NCCc2cn(C)c3ccccc23)ncnc1C(=O)N1CCC(N2CCC(N(C)S(C)(=O)=O)CC2)CC1 [Example 159y]	6.77
Cc1c(NCC2Cc3ccccc3C2)ncnc1C(=O)N1CCC(N2CCOCC2)CC1 [Example 46]	6.65
Cc1c(NCC2CCCc3ccccc32)ncnc1C(=O)N1CCC(N2CCC(N(C)S(C)(=O)=O)CC2)CC1 (stereo not shown) [Example 148]	6.92
Cc1c(NCC2CCCC(c3ccc(F)cc3)C2)ncnc1C(=O)N1CCC(N2CCC(NS(C)(=O)=O)CC2)CC1 (stereo not shown) [Example 159ba]	7.96
CCS(=O)(=O)N(C)C1CCN(C2CCN(C(=O)c3ncnc(NC[C@@H]4C[C@H]4c4ccccc4)c3C)CC2)CC1 [Example 147]	7.40
Cc1c(NCC2CCCC(C)(C)C2)ncnc1C(=O)N1CCC(N2CCC(N(C)S(C)(=O)=O)CC2)CC1 (stereo not shown) [Example 159h]	7.41

====

# Assay target: CCR2 (Homo sapiens, UniProt P41597)
# Construct: Membranes were prepared from THP-1 cells; endogenous in cells
# Protocol summary: CCR2 receptor membrane binding assay ([125I]MCP-1, THP-1 cell membranes, SPA beads)
# Conditions used: dissociation constant hKi; [125I]MCP-1 binding to THP-1 membranes
Threshold-based label: Ki under 0.7 µM gives T, Ki not under 0.7 µM gives F.

Molecule	Label
CO[C@@H]1COCC[C@@H]1NC1CCN(C(=O)c2ncnc(NC[C@H]3C[C@H](c4ccccc4)C3)c2C)CC1 [Example 275df]	T
Cc1c(NCc2ccc(C(F)(F)F)cc2)ncnc1C(=O)N1CCC(N2CCC(O)CC2)CC1	F
Cc1c(NCc2cc(F)cc(C(F)(F)F)c2)ncnc1C(=O)N1CCC(N2CCC(O)CC2)CC1	F
CCS(=O)(=O)NC1CCN(C2CCN(C(=O)c3ncnc(NCc4ccc(Cl)c(Cl)c4)c3C)CC2)CC1	T
Cc1c(NCCc2ccc(Cl)c(Cl)c2)ncnc1C(=O)N1CCC(N2CCCCC2)CC1	T
Cc1c(NCc2ccc(C(C)(C)C)cc2)ncnc1C(=O)N1CCCC(N2CCC(N(C)S(C)(=O)=O)CC2)CC1 (stereo not shown)	F

====

# Assay target: CCR2 (Homo sapiens)
# Construct: Membranes were prepared from THP-1 cells; endogenous in cells
# Protocol summary: CCR2 receptor membrane binding assay ([125I]MCP-1, THP-1 cell membranes, SPA beads)
# Conditions used: dissociation constant hKi; [125I]MCP-1 binding to THP-1 membranes
Dear colleague, classification is by Ki, with ranges listed here: I = under 30 nM, II = from 30 nM up to 1000 nM, III = 1000 nM and over

Compound	Label
Cc1c(NCC2CN(c3ccccc3)CCO2)ncnc1C(=O)N1CCC(N2CCC(N(C)S(C)(=O)=O)CC2)CC1 (stereo not drawn) [Example 159s]	III
O=C(c1cc(NCc2ccc(-c3ccccc3)cc2)ncn1)N1CCC(N2CCCC(O)C2)CC1 (stereo not drawn) [Example 103]	III
COC1COCCC1N(C)C1CCN(C(=O)c2ncnc(NCc3ccc(C(C)(C)C)cc3)c2C)CC1 (stereo not drawn) [Example 275b]	I
Cc1c(NCc2ccc(Cl)c(Cl)c2)ncnc1C(=O)N1CCC(N2CCC(NS(=O)(=O)C(C)C)CC2)CC1 [Example 197]	II
COC1COCCC1NC1CCN(C(=O)c2ncnc(NC3Cc4ccccc4C3)c2C)CC1 (stereo not drawn) [Example 159ec]	II
COc1nc(NCC2CCCC(c3ccccc3)C2)c(C)c(C(=O)N2CCC(N3CCC(N(C)S(C)(=O)=O)CC3)CC2)n1 (stereo not drawn) [Example 159a]	I
Cc1ccc(COc2ncnc(C(=O)N3CCC(N4CCC(N(C)S(C)(=O)=O)CC4)CC3)c2C)cc1F [Example 294]	II
Cc1c(NC[C@@H]2CCN(c3ccccc3)C2)ncnc1C(=O)N1CCC(N2CCC(N(C)S(C)(=O)=O)CC2)CC1 [Example 149]	II
Cc1ccc(CNc2ncnc(C(=O)N3CCC(N4CCC(O)CC4)CC3)c2C)cc1F [Example 120]	II
Cc1c(NCC2CCC(c3nc4ccccc4[nH]3)CC2)ncnc1C(=O)N1CCC(N2CCC(N(C)S(C)(=O)=O)CC2)CC1 (stereo not drawn) [Example 159r]	III
COC1CCN(C2CCN(C(=O)c3ncnc(NCC4CCCC(c5ccc(Cl)cc5)C4)c3C)CC2)CC1 (stereo not drawn) [Example 159lb]	I
CC(=O)NC1CCN(C2CCN(C(=O)c3ncnc(NCCc4ccc(Cl)c(Cl)c4)c3C)CC2)CC1 [Example 171]	II
Cc1c(NCCc2ccc(Cl)c(Cl)c2)ncnc1C(=O)N1CCC(N2CCC[C@H](C(=O)O)C2)CC1 [Example 179]	III
Cc1c(NCc2ccc(Cl)c(Cl)c2)ncnc1C(=O)N1CCC(N2CCC(N3CCCS3(=O)=O)CC2)CC1 [Example 189]	II
CO[C@@H]1COCC[C@@H]1NC1CCN(C(=O)c2ncnc(NC[C@H]3CCC[C@@H](c4ccc(C)o4)C3)c2C)CC1 [Example 275da]	I
